Experiment: Human HepG2 cell viability assay in 384 well format
Format: toxicity, cell-based
Parameters: dose 125 nL, time 70.5 hour; concentration not given beside the values
Details: HepG2 cells, read-out: Inhibition
Measurement label: cytotoxicity at 70.5 h (%)
Numbers only, in %.

See these solved cases before continuing.
> print(dat)
                                   compound       measurement.label  uom  assay.value
1  CCn1cc(CN2CCCn3nc(CNS(C)(=O)=O)cc3C2)c(C)n1  cytotoxicity at 70.5 h    %         13.3
2  CN(Cc1cccnc1)CC1(O)CCCN(CC(C)(C)C)C1=O (configuration not stated)  cytotoxicity at 70.5 h    %        -2.66
3  CCOCC(O)CN1CCN(C(=O)c2cc(Cl)ccc2F)CC1 (configuration not stated)  cytotoxicity at 70.5 h    %         2.85
4  O=C1NCC[C@]12CN(Cc1ccsc1)C[C@H]2c1ccccc1  cytotoxicity at 70.5 h    %        -4.93
5  CN(Cc1nnc2n1CCC2)S(=O)(=O)c1cc(Br)ccc1Br  cytotoxicity at 70.5 h    %        -13.1

Respectfully, I request cytotoxicity at 70.5 h for each entry included below.
1. CC(C)S(=O)(=O)NCC1CCCN(C(=O)c2ccc(F)cc2)C1 (configuration not stated)
2. CCC(Nc1ccc(CCN2CCCCC2)cc1)C(N)=O (configuration not stated)

Resp:
1: 9.08; 2: -8.14

I need cytotoxicity at 70.5 h for every entry listed below, if you could help.
1. Cc1ncc(C)c(N2CCC(CCc3ccccc3)(C(=O)O)CC2)n1
2. CCOC(=O)CNC(=O)c1cccnc1Oc1ccc(Cl)cc1
3. c1cc2nccc(CC3CCCN(C4CCOCC4)CC3)c2cn1 (configuration not stated)

Resp:
1: -10.1; 2: -9.7; 3: -1.46

Fill in cytotoxicity at 70.5 h for each of the 3 compounds listed.
1. Cc1cnn(C2CCCN(C(=O)CCCc3ccccn3)C2)c1 (configuration not stated)
2. O=C(Nc1cc(-c2cccnc2)no1)C1CCC1
3. Cc1nc(CN2CCC3(CCN(Cc4cnn(C)c4)C3)C2=O)cs1 (configuration not stated)

Resp:
[-1.28, -13, -13.8]

# return cytotoxicity at 70.5 h for each item in the list
1. CCN(Cc1noc(CC(C)C)n1)Cc1ccccc1C
2. CN(C)c1ncnc2c1CCN(c1cc(C(F)(F)F)ncn1)CC2
3. CN(Cc1nnc(C2CC2)o1)Cc1ccccc1-c1ccccc1
4. Cc1ccc(C(C)NCc2cn(CCC(N)=O)c3ccccc23)cc1C (configuration not stated)
5. Oc1ncccc1-c1nc(-c2cccc(CN3CCOCC3)c2)no1
6. Cc1noc(C)c1CCC(=O)N1CCN(Cc2cscn2)CC1
7. C[C@@H](NCc1cccc(Cl)c1)c1onc(-c2ccccc2)c1C(=O)O
8. CC(C)CNC(=O)C1=NOC2(CCN(Cc3ccoc3)C2)C1 (configuration not stated)

Resp:
-1.58
-1.26
-9.25
-3.87
-15.1
-2.32
-3.56
-0.398

Data origin, for the record: ChEMBL document CHEMBL3507680
